Test system: HSSY-II complex spheroid growth, percent test/control
Experiment: Anticancer human tumor HSSY-II cell line growth inhibition [Asc];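 note: spheroids exposed to drug for 7 days before reading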
Settings: second compound 0.03 µM; first compound 0.0316 µM; stronger effect = lower value
Excerpt: Multicellular complex tumor spheroid response to apoptosis pathway targeting inhibitors Alrizomadlin, Pelcitoclax, and Dasminapant in combination with a variety of drugs and investigational agents in selected tumor cell lines […] Compounds. […] If the clinical Cmax for an agent had not been determined, the highest concentration tested was 10 microM. […]
viability, T/C for assorted molecules
measure: viability, T/C

• NC1CCC(NC2CC2c2ccccc2)CC1 (stereo not given) + CCN1C(C(=O)NC23CCC(C(=O)O)(CC2)CC3)C(c2cccc(Cl)c2F)C2(C(=O)Nc3cc(Cl)ccc32)C12CCCCC2 = 55.8%
• COc1c(OCCCN2CCOCC2)ccc2c3n(c(=NC(=O)c4cnc(N)nc4)nc12)CCN3 + CCN1C(C(=O)NC23CCC(C(=O)O)(CC2)CC3)C(c2cccc(Cl)c2F)C2(C(=O)Nc3cc(Cl)ccc32)C12CCCCC2 = 42.1%
• CNC(C)C(=O)NC1CN(S(=O)(=O)c2cccc(S(=O)(=O)N3CCC4CCC(C(=O)NC(c5ccccc5)c5ccccc5)N4C(=O)C(NC(=O)C(C)NC)C3)c2)CCC2CCC(C(=O)NC(c3ccccc3)c3ccccc3)N2C1=O (stereo not given) + CCN1C(C(=O)NC23CCC(C(=O)O)(CC2)CC3)C(c2cccc(Cl)c2F)C2(C(=O)Nc3cc(Cl)ccc32)C12CCCCC2 = 65.6%
• CCN1CCN(Cc2ccc(Nc3ncc(F)c(-c4cc(F)c5nc(C)n(C(C)C)c5c4)n3)nc2)CC1 + CCN1C(C(=O)NC23CCC(C(=O)O)(CC2)CC3)C(c2cccc(Cl)c2F)C2(C(=O)Nc3cc(Cl)ccc32)C12CCCCC2 = 58.7%
• O=C(c1cc(Cc2n[nH]c(=O)c3ccccc23)ccc1F)N1CCN(C(=O)C2CC2)CC1 + CCN1C(C(=O)NC23CCC(C(=O)O)(CC2)CC3)C(c2cccc(Cl)c2F)C2(C(=O)Nc3cc(Cl)ccc32)C12CCCCC2 = 81.5%
• Cn1ncnc1[C@H]1c2n[nH]c(=O)c3cc(F)cc(c23)N[C@@H]1c1ccc(F)cc1 + CCN1C(C(=O)NC23CCC(C(=O)O)(CC2)CC3)C(c2cccc(Cl)c2F)C2(C(=O)Nc3cc(Cl)ccc32)C12CCCCC2 = 31.4%
• C=C(F)C(=O)N1CCN(c2nc(OCC3CCCN3C)nc3c2CCN(c2cccc4cccc(Cl)c24)C3)CC1CC#N (stereo not given) + CCN1C(C(=O)NC23CCC(C(=O)O)(CC2)CC3)C(c2cccc(Cl)c2F)C2(C(=O)Nc3cc(Cl)ccc32)C12CCCCC2 = 93.7%
• C#Cc1c(F)ccc2cc(O)cc(-c3ncc4c(N5CC6CCC(C5)N6)nc(OCC56CCCN5CC(F)C6)nc4c3F)c12 (stereo not given) + CCN1C(C(=O)NC23CCC(C(=O)O)(CC2)CC3)C(c2cccc(Cl)c2F)C2(C(=O)Nc3cc(Cl)ccc32)C12CCCCC2 = 91.6%
• C=CC(=O)N1CCN(c2nc(=O)n(-c3c(C)ccnc3C(C)C)c3nc(-c4c(O)cccc4F)c(F)cc23)C(C)C1 (stereo not given) + CCN1C(C(=O)NC23CCC(C(=O)O)(CC2)CC3)C(c2cccc(Cl)c2F)C2(C(=O)Nc3cc(Cl)ccc32)C12CCCCC2 = 87.5%
• O=C(c1ccc(F)c(F)c1Nc1ccc(I)cc1F)N1CC(O)([C@@H]2CCCCN2)C1 + CCN1C(C(=O)NC23CCC(C(=O)O)(CC2)CC3)C(c2cccc(Cl)c2F)C2(C(=O)Nc3cc(Cl)ccc32)C12CCCCC2 = 77.7%

====

tested on: HSSY-II complex spheroid growth, percent test/control; experiment: Anticancer human tumor HSSY-II cell line growth inhibition [Asc]; details: second compound 0.3 µM; first compound 0.01 µM; stronger effect = lower value;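 note: spheroids exposed to drug for 7 days before reading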
measure: viability, T/C (%)

* COc1c(OCCCN2CCOCC2)ccc2c3n(c(=NC(=O)c4cnc(N)nc4)nc12)CCN3 + CCN1C(C(=O)NC23CCC(C(=O)O)(CC2)CC3)C(c2cccc(Cl)c2F)C2(C(=O)Nc3cc(Cl)ccc32)C12CCCCC2 | 18.8
* CNC(C)C(=O)NC1CN(S(=O)(=O)c2cccc(S(=O)(=O)N3CCC4CCC(C(=O)NC(c5ccccc5)c5ccccc5)N4C(=O)C(NC(=O)C(C)NC)C3)c2)CCC2CCC(C(=O)NC(c3ccccc3)c3ccccc3)N2C1=O (configuration not stated) + CCN1C(C(=O)NC23CCC(C(=O)O)(CC2)CC3)C(c2cccc(Cl)c2F)C2(C(=O)Nc3cc(Cl)ccc32)C12CCCCC2 | 13.5

====

tested on: HSSY-II complex spheroid growth, percent test/control; test: Anticancer human tumor HSSY-II cell line growth inhibition [Asc]; conditions: curve of first compound; second compound 0.03 µM;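 note: spheroids exposed to drug for 7 days before reading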
measure: IC50 (nM)

* C=C(F)C(=O)N1CCN(c2nc(OCC3CCCN3C)nc3c2CCN(c2cccc4cccc(Cl)c24)C3)CC1CC#N (stereo not given) + CCN1C(C(=O)NC23CCC(C(=O)O)(CC2)CC3)C(c2cccc(Cl)c2F)C2(C(=O)Nc3cc(Cl)ccc32)C12CCCCC2 | 1090
* O=C(c1cc(Cc2n[nH]c(=O)c3ccccc23)ccc1F)N1CCN(C(=O)C2CC2)CC1 + CCN1C(C(=O)NC23CCC(C(=O)O)(CC2)CC3)C(c2cccc(Cl)c2F)C2(C(=O)Nc3cc(Cl)ccc32)C12CCCCC2 | 1760
* C#Cc1c(F)ccc2cc(O)cc(-c3ncc4c(N5CC6CCC(C5)N6)nc(OCC56CCCN5CC(F)C6)nc4c3F)c12 (stereo not given) + CCN1C(C(=O)NC23CCC(C(=O)O)(CC2)CC3)C(c2cccc(Cl)c2F)C2(C(=O)Nc3cc(Cl)ccc32)C12CCCCC2 | 5960
* NC(=O)C(=Cn1cnc(-c2cc(C(F)(F)F)cc(C(F)(F)F)c2)n1)c1cncnc1 + CCN1C(C(=O)NC23CCC(C(=O)O)(CC2)CC3)C(c2cccc(Cl)c2F)C2(C(=O)Nc3cc(Cl)ccc32)C12CCCCC2 | 10.5

====

test system: HSSY-II complex spheroid growth, percent test/control; test: Anticancer human tumor HSSY-II cell line growth inhibition [Asc]; conditions: second compound 10 µM; first compound 1 µM; stronger effect = lower value;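 note: spheroids exposed to drug for 7 days before reading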
measure: viability, T/C (%)

* COc1c(OCCCN2CCOCC2)ccc2c3n(c(=NC(=O)c4cnc(N)nc4)nc12)CCN3 + Cc1c(S(C)(=O)=O)c(-c2cc(F)cc(N3CCN(c4ccc(NS(=O)(=O)c5ccc(NC(CCN6CCC(C(=O)OCCCP(=O)(O)O)CC6)CSc6ccccc6)c(S(=O)(=O)C(F)(F)F)c5)cc4)CC3)c2)c(-c2ccc(Cl)cc2)n1C(C)C | 3.47
* CCN1CCN(Cc2ccc(Nc3ncc(F)c(-c4cc(F)c5nc(C)n(C(C)C)c5c4)n3)nc2)CC1 + Cc1c(S(C)(=O)=O)c(-c2cc(F)cc(N3CCN(c4ccc(NS(=O)(=O)c5ccc(NC(CCN6CCC(C(=O)OCCCP(=O)(O)O)CC6)CSc6ccccc6)c(S(=O)(=O)C(F)(F)F)c5)cc4)CC3)c2)c(-c2ccc(Cl)cc2)n1C(C)C | 24.9
* C#Cc1c(F)ccc2cc(O)cc(-c3ncc4c(N5CC6CCC(C5)N6)nc(OCC56CCCN5CC(F)C6)nc4c3F)c12 (stereo unspecified) + Cc1c(S(C)(=O)=O)c(-c2cc(F)cc(N3CCN(c4ccc(NS(=O)(=O)c5ccc(NC(CCN6CCC(C(=O)OCCCP(=O)(O)O)CC6)CSc6ccccc6)c(S(=O)(=O)C(F)(F)F)c5)cc4)CC3)c2)c(-c2ccc(Cl)cc2)n1C(C)C | 97.8
* O=C(c1cc(Cc2n[nH]c(=O)c3ccccc23)ccc1F)N1CCN(C(=O)C2CC2)CC1 + Cc1c(S(C)(=O)=O)c(-c2cc(F)cc(N3CCN(c4ccc(NS(=O)(=O)c5ccc(NC(CCN6CCC(C(=O)OCCCP(=O)(O)O)CC6)CSc6ccccc6)c(S(=O)(=O)C(F)(F)F)c5)cc4)CC3)c2)c(-c2ccc(Cl)cc2)n1C(C)C | 66.7
* C=C(F)C(=O)N1CCN(c2nc(OCC3CCCN3C)nc3c2CCN(c2cccc4cccc(Cl)c24)C3)CC1CC#N (stereo unspecified) + Cc1c(S(C)(=O)=O)c(-c2cc(F)cc(N3CCN(c4ccc(NS(=O)(=O)c5ccc(NC(CCN6CCC(C(=O)OCCCP(=O)(O)O)CC6)CSc6ccccc6)c(S(=O)(=O)C(F)(F)F)c5)cc4)CC3)c2)c(-c2ccc(Cl)cc2)n1C(C)C | 55.7
* CNC(C)C(=O)NC1CN(S(=O)(=O)c2cccc(S(=O)(=O)N3CCC4CCC(C(=O)NC(c5ccccc5)c5ccccc5)N4C(=O)C(NC(=O)C(C)NC)C3)c2)CCC2CCC(C(=O)NC(c3ccccc3)c3ccccc3)N2C1=O (stereo unspecified) + Cc1c(S(C)(=O)=O)c(-c2cc(F)cc(N3CCN(c4ccc(NS(=O)(=O)c5ccc(NC(CCN6CCC(C(=O)OCCCP(=O)(O)O)CC6)CSc6ccccc6)c(S(=O)(=O)C(F)(F)F)c5)cc4)CC3)c2)c(-c2ccc(Cl)cc2)n1C(C)C | 76.3
